Target: indoleamine 2, 3-dioxygenase (IDO1) (Homo sapiens, UniProt P14902)
Construct: human peripheral blood mononuclear cells (PBMC) (PB003F; host or cells: human PBMC stimulated with IFN-gamma and LPS
Sequence (P14902 whole entry): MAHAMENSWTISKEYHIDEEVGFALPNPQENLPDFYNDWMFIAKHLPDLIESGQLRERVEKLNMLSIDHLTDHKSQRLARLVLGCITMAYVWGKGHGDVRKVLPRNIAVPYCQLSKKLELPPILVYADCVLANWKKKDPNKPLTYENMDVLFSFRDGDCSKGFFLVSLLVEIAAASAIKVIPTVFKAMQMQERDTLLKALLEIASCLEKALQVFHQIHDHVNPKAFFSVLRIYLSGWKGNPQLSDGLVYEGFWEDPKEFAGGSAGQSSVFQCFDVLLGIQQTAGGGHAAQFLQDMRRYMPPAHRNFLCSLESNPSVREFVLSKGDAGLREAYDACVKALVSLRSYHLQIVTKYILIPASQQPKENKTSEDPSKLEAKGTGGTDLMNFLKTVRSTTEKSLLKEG
Test: PBMC IDO1 assay (kynurenine detection via mass spectrometry)
Type: cell-based
Details: human PBMC stimulated with IFN-γ and LPS, 2 days, kynurenine by mass spectrometry; read-out: IDO1 PBMC pIC50 (converted)
Description: Compounds of the present invention were tested via high-throughput cellular assays utilizing detection of kynurenine via mass spectrometry and cytotoxicity as end-points. […] Cellular toxicity due to the effect of compound treatment was measured using CellTiter-Glo® reagent (CTG) (Promega Corporation, Madison, Wis.), which is based on luminescent detection of ATP, an indicator of metabolically active cells. […]
metric_name: IC50 (nM)

Worked cases, answers included:
COc1ccc(C(CC2CCN(C(=O)OC(C)C)CC2)NC(=O)c2ccc(F)cc2)cn1 (stereo not drawn) [Example 55]: 12.6
Cc1ccc(C(=O)NC(CC2CCN(C(=O)C(F)(F)c3ccccn3)CC2)c2ccccc2)s1 (stereo not drawn) [Example 136]: 50.1
CC(C)(C)OC(=O)N1CCC(CC(NC(=O)c2ccc(F)s2)c2ccccc2)CC1 (stereo not drawn) [Example 58]: 12.6

a. CC#CCOc1ccc(C(=O)NC(CC2CCN(C(=O)OC(C)(C)C)CC2)c2ccccc2)cc1F (stereo not drawn) [Example 167]
b. Cc1ccc(C(=O)NC(CC2CCN(C(=O)Oc3ccccc3)CC2)c2ccccc2)s1 (stereo not drawn) [Example 51]
c. CC(C)(C)OC(=O)N1CCC(CC(NC(=O)C23CCC(CC2)CC3)c2ccccc2)CC1 (stereo not drawn) [Example 201]
d. CCCCN(CC)c1nnc(C(CC2CCN(C(=O)OC(C)(C)C)CC2)NC(=O)c2ccc(C)s2)o1 (stereo not drawn) [Example 96]
Please list these in order of increasing IC50. Thank you! Rank them, then answer with their labels in that order.
b, d, a, c

a. CC(C)(C)OC(=O)N1CCC(CC(NC(=O)c2ccc(F)c(Cl)c2)c2ccccc2)CC1 (stereo not drawn) [Example 203]
b. COc1ccc([C@H](CC2CCN(C(=O)OC(C)C)CC2)NC(=O)c2ccc(Cl)s2)cn1 [Example 21]
Field: lower recorded IC50 (choose a or b ) Give the chosen item's label as your response.
b

I. CC(C)COC(=O)N1CCC(CC(NC(=O)c2ccc(Cl)cc2)c2ccccc2)CC1 (stereo not drawn) [Example 125]
II. CC(C)(C)OC(=O)N1CCC(CC(NC(=O)c2ccc(Br)s2)c2ccccc2)CC1 (stereo not drawn) [Example 2]
III. CC(C)(C)OC(=O)N1CCC(CC(NC(=O)c2ccc(O)c(F)c2)c2ccccc2)CC1 (stereo not drawn) [Example 196]
IV. CC(C)(C)OC(=O)N1CCC(CC(NC(=O)c2cccc(F)c2)c2ccccc2)CC1 (stereo not drawn) [Example 146]
V. CCN(CC)c1nnc(C(CC2CCN(C(=O)Oc3ccccc3)CC2)NC(=O)c2ccc(Cl)s2)o1 (stereo not drawn) [Example 53]
Please produce an ascending ranking of these molecules based on IC50. Order the labels as requested and give them as your answer.
V, II, I, IV, III

P. CC(C)(C)OC(=O)N1CCC(CC(NC(=O)c2ccc(Cl)s2)c2ccccc2)CC1 (stereo not drawn) [Example 3]
Q. CC(C)(C)OC(=O)N1CCC(CC(NC(=O)c2ccc(C#N)nc2)c2ccccc2)CC1 (stereo not drawn) [Example 189]
Given P and given Q , which shows the smaller recorded IC50? Reply with the label of the item you choose.
P

---

Target: indoleamine 2, 3-dioxygenase (IDO1) (Homo sapiens)
Construct: human peripheral blood mononuclear cells (PBMC) (PB003F; host or cells: human PBMC stimulated with IFN-gamma and LPS
Test: PBMC IDO1 assay (kynurenine detection via mass spectrometry)
Format: cell-based
Conditions: human PBMC stimulated with IFN-γ and LPS, 2 days, kynurenine by mass spectrometry; read-out: IDO1 PBMC pIC50 (converted)
metric_name: IC50 (nM)

These solved cases illustrate the format of a correct answer.
CCN(CC)c1nnc(C(CC2CCN(C(=O)OC(C)(C)C)CC2)NC(=O)c2ccc(F)cc2)o1 (centres unmarked) [Example 112]: 31.6
CC(C)(C)OC(=O)N1CCC(CC(NC(=O)c2csc(Cl)c2)c2ccccc2)CC1 (centres unmarked) [Example 128]: 39.8
Cc1ccc(C(=O)NC(CC2CCN(C(=O)OC(C)(C)C)CC2)C2CCCCC2)s1 (centres unmarked) [Example 80]: 15.8

P. CC(C)CC(CC1CCN(C(=O)Oc2ccccc2)CC1)NC(=O)c1ccc(Cl)cc1 (centres unmarked) [Example 67]
Q. CC(C)(C)OC(=O)N1CCC(CC(NC(=O)c2ccc(F)cc2)c2ccccc2)CC1 (centres unmarked) [Example 107]
// compare measured IC50 between P and Q ; output the lower one Lab log: write the label of the selected item as the result.
P
(P: 12.6 nM, Q: 31.6 nM)

---

Target: indoleamine 2, 3-dioxygenase (IDO1) (Homo sapiens)
Construct: human peripheral blood mononuclear cells (PBMC) (PB003F; host or cells: human PBMC stimulated with IFN-gamma and LPS
Assay: PBMC IDO1 assay (kynurenine detection via mass spectrometry)
Assay type: cell-based
Settings: human PBMC stimulated with IFN-γ and LPS, 2 days, kynurenine by mass spectrometry; read-out: IDO1 PBMC pIC50 (converted)
metric_name: IC50 (nM)

The following molecules have reported results that may help.
COc1ccc(C(CC2CCN(C(=O)OCC(C)C)CC2)NC(=O)c2ccc(F)cc2)cn1 (centres unmarked): 12.6
CC(C)CC(CC1CCN(C(=O)OC(C)(C)C)CC1)NC(=O)c1ccc(F)s1 (centres unmarked): 15.8
CCN(c1nnc(C(CC2CCN(C(=O)OC(C)(C)C)CC2)NC(=O)c2ccc(C)s2)o1)C1CC1 (centres unmarked): 6.31

P. CC(C)(C)OC(=O)N1CCC(CC(NC(=O)c2ccc(F)cc2)c2ccc(=O)n(Cc3ccccc3)c2)CC1 (centres unmarked)
Q. CC(C)(C)OC(=O)N1CCC(CC(NC(=O)c2cccc(Cl)c2)c2ccccc2)CC1 (centres unmarked)
Just curious, which one has the larger IC50 reading, P or Q ? # respond with the chosen item's label
Q

---

Target: indoleamine 2, 3-dioxygenase (IDO1) (Homo sapiens)
Construct: human peripheral blood mononuclear cells (PBMC) (PB003F; host or cells: human PBMC stimulated with IFN-gamma and LPS
Test: PBMC IDO1 assay (kynurenine detection via mass spectrometry)
Assay type: cell-based
Conditions: human PBMC stimulated with IFN-γ and LPS, 2 days, kynurenine by mass spectrometry; read-out: IDO1 PBMC pIC50 (converted)
metric_name: IC50 (nM)

Solved cases below.
C=Cc1ccc(C(=O)NC(CC2CCN(C(=O)OC(C)(C)C)CC2)c2ccccc2)cc1 (centres unmarked) [Example 119]: 31.6
CC(C)(C)OC(=O)N1CCC(CC(NC(=O)c2ccc(C#N)cc2)c2ccccc2)CC1 (centres unmarked) [Example 141]: 63.1
CN(C)c1nnc(C(CC2CCN(C(=O)OC(C)(C)C)CC2)NC(=O)c2ccc(Cl)s2)o1 (centres unmarked) [Example 73]: 15.8
CC(C)OC(=O)N1CCC(C[C@H](NC(=O)c2ccc(Cl)s2)C2CC2)CC1 [Example 14]: 3.98
CC(C)(C)OC(=O)N1CCC(CC(NC(=O)C2CCCCC2)c2ccccc2)CC1 (centres unmarked) [Example 190]: 200

a. C#Cc1ccc(C(=O)NC(CC2CCN(C(=O)OC(C)(C)C)CC2)c2ccccc2)cc1F (centres unmarked) [Example 6]
b. COc1ccc([C@H](CC2CCN(C(=O)OC(C)C)CC2)NC(=O)c2ccc(Cl)cc2)cn1 [Example 22]
When their IC50 values are compared, which is larger, a or b ? # reply format: chosen label
a
(a: 10 nM, b: 2 nM)

A. CC(C)(C)OC(=O)N1CCC(CC(NC(=O)c2cccs2)c2ccccc2)CC1 (centres unmarked) [Example 131]
B. CC(C)(C)OC(=O)N1CCC(CC(NC(=O)c2ccc3c(c2)OCO3)c2ccccc2)CC1 (centres unmarked) [Example 175]
C. COc1ccc([C@H](CC2CCN(C(=O)OC(C)(C)C)CC2)NC(=O)c2ccc(Cl)s2)cn1 [Example 16]
Parameters: sort_field (IC50), sort_dir (desc). Provide the ranking by listing each label in its place in the requested order.
B, A, C
(B: 126 nM, A: 50.1 nM, C: 0.794 nM)

---

Biological target: indoleamine 2, 3-dioxygenase (IDO1) (Homo sapiens, UniProt P14902)
Construct: human peripheral blood mononuclear cells (PBMC) (PB003F; host or cells: human PBMC stimulated with IFN-gamma and LPS
Assay: PBMC IDO1 assay (kynurenine detection via mass spectrometry)
Assay type: cell-based
Conditions: human PBMC stimulated with IFN-γ and LPS, 2 days, kynurenine by mass spectrometry; read-out: IDO1 PBMC pIC50 (converted)
metric_name: IC50 (nM)

P. CC(C)(C)OC(=O)N1CCC(CC(NC(=O)c2ccc(Br)cc2)c2ccccc2)CC1 (stereo not drawn)
Q. CC(C)(C)OC(=O)N1CCC(CC(NC(=O)c2ccsc2)c2ccccc2)CC1 (stereo not drawn)
Which has the smaller recorded IC50, P or Q ? Lab log: write the label of the selected item as the result.
P
